Data provenance is the supplement of paper PMC8728848.

- tested-on: GlcNAc(b1-2)Man(a1-3)[GlcNAc(b1-2)Man(a1-6)]Man(b1-4)GlcNAc(b1-4)[Fuc(a1-6)]GlcNAc
- assay-details: glycan array binding signal (z-score within array); higher = stronger binding
- assay-context: glycan notation: IUPAC condensed, linker removed
This is one part of a sample in which the strongest signals are shown more often than they occur.
parameter-measured: glycan array binding signal (z-score)
Number only, no unit.

Epa7 (Candida glabrata), Q6DTM6_CANGB (protein) MGSSHHHHHHSSGLVPRGSHMKDDYSSFLSNNNLGWTDPTEFPLGCSPNVTTPKNGLSMELYSYDLRKNGSYPCWDAAYLDPNYPRTGYKSHRLLAKVDGVTGNINFYYHATKGCTPEIDHLPASYNYPKPLTMTNFTMLLYGYFKPKVTGYHTFTISADDLLFVNFGAGNAFDCCKRESSADDFGNYQAYAVWGSQTAKDDLTVHLDAGLYYPIRIFFNNREYDAELSLTLKTESDSNPVIDFSDYFYSFDDTKDGCPGLVSYDTS | -0.232

Can you look up the measured glycan array binding signal (z-score) of SRS2 (Toxoplasma gondii), O15695 (protein) MATRASLARQKTGAACLAVLTASPSVVAAKPWKRWVGVSVILASAFAVGVSAGPPYRYEPEKFTCRPKKGILSQWVSLLYQVQHNITFACEEATPVPTTLISEEHGLMVCAENMTPEECEANPAPLSAFLPGATKEWVTGDSVLTGLKISVPESQYPANAKSFRVGCRHNTKTGNTCMLTIHVEPRDPAVERQEARCSYTENSTLPKIFVTKDSNTMTLACGPHGAPMPESYTENYCSTPDTCDEKPFTSVIPGYLSKWFFGDPKSPLGARVRIPPEQIPSSPQINYFGCTGPTEGEGPKYNCTVPVPLGGGDPSEGSRPGGGSGGGKRGGGQGGGGSLAGFDFRQGSARHSLPSRMALSASALLAMTALAY for me?
14.3
